# SYSTEM: beta-catenin/TCF4 engagement (Homo sapiens, UniProt P35222)
# Construct: expressed in transfected cells; host or cells: HEK293
# Sequence (P35222 whole entry): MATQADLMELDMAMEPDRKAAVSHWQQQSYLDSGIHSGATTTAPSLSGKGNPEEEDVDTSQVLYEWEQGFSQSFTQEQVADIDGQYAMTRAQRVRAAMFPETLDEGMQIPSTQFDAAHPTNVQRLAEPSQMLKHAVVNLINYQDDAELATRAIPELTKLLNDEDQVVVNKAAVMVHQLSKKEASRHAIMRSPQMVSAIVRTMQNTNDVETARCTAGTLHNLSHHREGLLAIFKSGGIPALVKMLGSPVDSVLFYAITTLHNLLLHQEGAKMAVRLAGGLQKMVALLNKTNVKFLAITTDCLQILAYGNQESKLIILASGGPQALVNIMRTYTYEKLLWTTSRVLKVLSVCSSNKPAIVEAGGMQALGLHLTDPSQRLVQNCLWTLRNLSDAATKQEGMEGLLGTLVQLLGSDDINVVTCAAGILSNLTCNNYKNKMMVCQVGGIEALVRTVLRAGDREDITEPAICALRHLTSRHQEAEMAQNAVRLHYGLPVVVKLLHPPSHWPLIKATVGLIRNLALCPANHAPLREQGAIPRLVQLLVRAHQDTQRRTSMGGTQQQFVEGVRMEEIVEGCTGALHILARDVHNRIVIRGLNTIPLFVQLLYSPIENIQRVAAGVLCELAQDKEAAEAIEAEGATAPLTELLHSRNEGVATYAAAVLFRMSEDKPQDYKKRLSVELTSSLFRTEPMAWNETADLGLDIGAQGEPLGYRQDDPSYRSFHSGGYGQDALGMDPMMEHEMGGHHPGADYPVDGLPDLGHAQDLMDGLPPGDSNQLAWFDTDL
# PROTOCOL SUMMARY: Nano-BRET target engagement assay (B-cat-Halo & TCF4-Luc in HEK293 cells)
# Assay type: cell-based
# EXPERIMENTAL CONDITIONS: absolute IC50; read-out: NanoBRET Abs IC50
QUANTITY MEASURED: IC50 (µM)
Your answer is read as µM, so omit the unit and give the number.

{"MOLECULE": "CC(=O)N1CCC[C@]12CC=CCCCC1(CCCC=CCCCOC(=O)N3CC[C@@](C(=O)N[C@@H](Cc4ccccc4C(N)=O)C(=O)N[C@@H](Cc4csc5ccccc45)C(=O)N[C@@H](CCC(N)=O)C(N)=O)(C3)NC(=O)[C@H](CC(C)C)NC(=O)[C@H](Cc3ccccc3)NC(=O)[C@H](C)NC(=O)[C@H](C)NC(=O)[C@H](CC(=O)O)NC(=O)[C@H](CC(=O)O)NC1=O)NC(=O)[C@H](CC(C)(C)C)NC(=O)[C@H](CC(=O)O)NC2=O (some centres unmarked)", "RESULT UNIT": "µM", "IC50": 7.2}
{"MOLECULE": "CC(=O)N1CCC[C@]12CC=CCCCC1(CCCC=CCCCCCC[C@@](C)(C(=O)N[C@@H](Cc3ccccc3)C(=O)N[C@@H](Cc3csc4ccccc34)C(=O)N[C@@H](CCC(N)=O)C(N)=O)NC(=O)[C@H](CC(N)=O)NC(=O)[C@H](Cc3ccccc3)NC(=O)[C@H](C)NC(=O)[C@H](C)NC(=O)[C@H](CCC(=O)O)NC(=O)[C@H](CC(=O)O)NC1=O)NC(=O)[C@H](CC(C)(C)C)NC(=O)[C@H](CC(=O)O)NC2=O (some centres unmarked)", "RESULT UNIT": "µM", "IC50": 6.7}

Now look at this one.
[ask] Tell me its IC50 given CC(=O)N1CCC[C@]12CC=CCCCC1(CCCC=CCCCOC(=O)N3CC[C@@](C(=O)N[C@@H](Cc4ccccc4Cl)C(=O)N[C@@H](Cc4csc5ccccc45)C(=O)N[C@H](CO)Cc4ccccc4)(C3)NC(=O)[C@H](CC(N)=O)NC(=O)[C@H](Cc3ccccc3)NC(=O)[C@H](C)NC(=O)[C@H](C)NC(=O)[C@H](CC(=O)O)NC(=O)[C@H](CC(=O)O)NC1=O)NC(=O)[C@H](CC(C)(C)C)NC(=O)[C@H](CC(=O)O)NC2=O (some centres unmarked) as the entry.
[reply] 18.8
